# tested.on: Epidermal growth factor receptor (Homo sapiens, UniProt P00533, C797S/L858R/T790M)
# Sequence (P00533 25-1210 T790M/C797S/L858R limits assumed): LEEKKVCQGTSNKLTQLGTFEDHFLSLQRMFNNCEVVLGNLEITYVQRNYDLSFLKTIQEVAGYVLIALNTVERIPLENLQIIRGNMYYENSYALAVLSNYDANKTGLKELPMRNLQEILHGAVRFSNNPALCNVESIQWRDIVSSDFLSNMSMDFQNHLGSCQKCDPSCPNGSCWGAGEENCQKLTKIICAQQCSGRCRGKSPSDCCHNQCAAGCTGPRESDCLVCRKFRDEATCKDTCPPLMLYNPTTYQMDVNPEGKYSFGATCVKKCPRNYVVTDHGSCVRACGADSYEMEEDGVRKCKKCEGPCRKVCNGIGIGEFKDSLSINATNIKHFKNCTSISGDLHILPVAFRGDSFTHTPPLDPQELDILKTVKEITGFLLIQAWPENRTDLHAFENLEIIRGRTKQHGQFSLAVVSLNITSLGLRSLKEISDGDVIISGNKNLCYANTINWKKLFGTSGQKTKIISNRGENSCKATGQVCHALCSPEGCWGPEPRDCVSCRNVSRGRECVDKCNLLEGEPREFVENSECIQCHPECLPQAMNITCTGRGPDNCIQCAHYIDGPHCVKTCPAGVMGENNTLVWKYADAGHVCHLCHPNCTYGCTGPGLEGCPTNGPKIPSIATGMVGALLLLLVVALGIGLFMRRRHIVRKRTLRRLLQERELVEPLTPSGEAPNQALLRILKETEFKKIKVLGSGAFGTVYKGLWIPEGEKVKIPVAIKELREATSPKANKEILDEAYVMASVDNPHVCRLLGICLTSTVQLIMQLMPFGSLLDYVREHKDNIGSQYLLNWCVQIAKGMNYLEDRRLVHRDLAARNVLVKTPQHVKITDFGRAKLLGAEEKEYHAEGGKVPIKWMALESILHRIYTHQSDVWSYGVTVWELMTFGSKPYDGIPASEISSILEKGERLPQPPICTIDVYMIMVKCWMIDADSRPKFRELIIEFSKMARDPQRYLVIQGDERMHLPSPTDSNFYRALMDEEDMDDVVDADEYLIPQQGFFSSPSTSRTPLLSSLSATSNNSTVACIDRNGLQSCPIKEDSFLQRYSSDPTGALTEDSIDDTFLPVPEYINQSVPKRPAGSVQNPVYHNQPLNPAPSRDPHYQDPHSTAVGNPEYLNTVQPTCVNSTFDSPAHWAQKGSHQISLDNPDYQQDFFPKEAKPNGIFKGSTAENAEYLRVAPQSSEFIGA
# method.notes: Inhibition of EGFR L858R/T790M/C797S mutant (unknown origin) by ELISA
pIC50: −log10 of the molar value.
measurement.type: pIC50

| mol | tested.on | measurement.type | qualifier | measured.number |
| --- | --- | --- | --- | --- |
| CCc1cc(Nc2ncc(Cl)c(-c3cn(S(=O)(=O)CC)c4ccccc34)n2)c(OC)cc1N1CCC(N2CCN(C)CC2)CC1 | Epidermal growth factor receptor (Homo sapiens, UniProt P00533, C797S/L858R/T790M) | pIC50 | = | 7.66 |
| CCS(=O)(=O)n1cc2c3ccc(cc31)OCCCCCCOc1cc(c(F)cc1N1CCOCC1)Nc1ncc(Cl)c-2n1 | Epidermal growth factor receptor (Homo sapiens, UniProt P00533, C797S/L858R/T790M) | pIC50 | = | 7.55 |
| CCOc1cc(N2CCC(N3CCN(C)CC3)CC2)c(Cl)cc1Nc1ncc(Cl)c(-c2cn(S(=O)(=O)CC)c3ccccc23)n1 | Epidermal growth factor receptor (Homo sapiens, UniProt P00533, C797S/L858R/T790M) | pIC50 | = | 8.38 |
| CCS(=O)(=O)n1cc(-c2nc(Nc3cc(Cl)c(N4CCC(N5CCN(C)CC5)CC4)cc3OC(C)C)ncc2Cl)c2ccccc21 | Epidermal growth factor receptor (Homo sapiens, UniProt P00533, C797S/L858R/T790M) | pIC50 | = | 7.51 |
| CCS(=O)(=O)n1cc2c3ccc(cc31)OCCCCCCCCOc1cc(ccc1N1CCOCC1)Nc1ncc(Cl)c-2n1 | Epidermal growth factor receptor (Homo sapiens, UniProt P00533, C797S/L858R/T790M) | pIC50 | = | 6.85 |
| COc1cc(N2CCC(N3CCN(C)CC3)CC2)ccc1Nc1ncc(Cl)c(-c2cn(S(=O)(=O)C(C)C)c3ccccc23)n1 | Epidermal growth factor receptor (Homo sapiens, UniProt P00533, C797S/L858R/T790M) | pIC50 | = | 6.84 |
| CCS(=O)(=O)n1cc(-c2nc(Nc3ccc(N4CCC(N5CCN(C)CC5)CC4)c(Cl)c3OC)ncc2Cl)c2ccccc21 | Epidermal growth factor receptor (Homo sapiens, UniProt P00533, C797S/L858R/T790M) | pIC50 | < | 6.00 |
| CCS(=O)(=O)n1cc2c3ccc(cc31)OCCCCCCOc1cc(c(C3CC3)cc1N1CCOCC1)Nc1ncc(Cl)c-2n1 | Epidermal growth factor receptor (Homo sapiens, UniProt P00533, C797S/L858R/T790M) | pIC50 | = | 7.25 |
| CCS(=O)(=O)n1cc(-c2nc(Nc3cc(C)c(N4CCC(N5CCN(C)CC5)CC4)cc3OC)ncc2Cl)c2ccccc21 | Epidermal growth factor receptor (Homo sapiens, UniProt P00533, C797S/L858R/T790M) | pIC50 | = | 8.82 |
| CCS(=O)(=O)n1cc(-c2nc(Nc3cc(C(C)C)c(N4CCC(N5CCN(C)CC5)CC4)cc3OC)ncc2Cl)c2ccccc21 | Epidermal growth factor receptor (Homo sapiens, UniProt P00533, C797S/L858R/T790M) | pIC50 | = | 6.32 |
| CCS(=O)(=O)n1cc2c3ccc(cc31)OCCCCCCOc1cc(c(Cl)cc1N1CCOCC1)Nc1ncc(Cl)c-2n1 | Epidermal growth factor receptor (Homo sapiens, UniProt P00533, C797S/L858R/T790M) | pIC50 | = | 7.24 |
| CCS(=O)(=O)n1cc2c3ccc(cc31)OCCCCOc1cc(ccc1N1CCOCC1)Nc1ncc(Cl)c-2n1 | Epidermal growth factor receptor (Homo sapiens, UniProt P00533, C797S/L858R/T790M) | pIC50 | < | 6.00 |
| CCS(=O)(=O)n1cc(-c2nc(Nc3ccc(N4CCC(N5CCN(C)CC5)CC4)c(Cl)c3)ncc2Cl)c2ccccc21 | Epidermal growth factor receptor (Homo sapiens, UniProt P00533, C797S/L858R/T790M) | pIC50 | = | 7.84 |
| CCS(=O)(=O)n1cc2c3ccc(cc31)OCCCCCCOc1cc(ccc1N1CCOCC1)Nc1ncc(Cl)c-2n1 | Epidermal growth factor receptor (Homo sapiens, UniProt P00533, C797S/L858R/T790M) | pIC50 | = | 8.21 |
| CCS(=O)(=O)n1cc2c3ccc(cc31)OCCCCCOc1cc(ccc1N1CCOCC1)Nc1ncc(Cl)c-2n1 | Epidermal growth factor receptor (Homo sapiens, UniProt P00533, C797S/L858R/T790M) | pIC50 | = | 7.72 |
| COc1cc(N2CCC(N3CCN(C)CC3)CC2)ccc1Nc1ncc(Cl)c(-c2c[nH]c3ccccc23)n1 | Epidermal growth factor receptor (Homo sapiens, UniProt P00533, C797S/L858R/T790M) | pIC50 | = | 6.90 |
